List of fold reduction in affinity against wild type values.
target-under-test: T1, fluorescently labeled phosphopeptide VNKpSYFND-fluorescein
T1 peptide: VNK[pS]YFND-fluorescein
test-details: fluorescence polarisation
Square brackets hold non-standard residues; d marks the D form. Ends that are not written are not given here. pS = N[C@@H](COP(=O)(O)O)C(=O)O
observable: fold reduction in affinity against wild type

binder	recorded-measurement
BRCA1 BRCT M1783T (domain or fragment, UniProt P38398 1646-1863, looked up) VNKRMSMVVSGLTPEEFMLVYKFARKHHITLTNLITEETTHVVMKTDAEFVCERTLKYFLGIAGGKWVVSYFWVTQSIKERKMLNEHDFEVRGDVVNGRNHQGPKRARESQDRKIFRGLEICCYGPFTNMPTDQLEWTVQLCGASVVKELSSFTLGTGVHPIVVVQPDAWTEDNGFHAIGQMCEAPVVTREWVLDSVALYQCQELDTYLIPQIPHSHY	≤ 1.5 fold
BRCA1 BRCT L1664P (domain or fragment, UniProt P38398 1646-1863, looked up) VNKRMSMVVSGLTPEEFMPVYKFARKHHITLTNLITEETTHVVMKTDAEFVCERTLKYFLGIAGGKWVVSYFWVTQSIKERKMLNEHDFEVRGDVVNGRNHQGPKRARESQDRKIFRGLEICCYGPFTNMPTDQLEWMVQLCGASVVKELSSFTLGTGVHPIVVVQPDAWTEDNGFHAIGQMCEAPVVTREWVLDSVALYQCQELDTYLIPQIPHSHY	~1.4 fold
BRCA1 BRCT A1843P (domain or fragment, UniProt P38398 1646-1863, looked up) VNKRMSMVVSGLTPEEFMLVYKFARKHHITLTNLITEETTHVVMKTDAEFVCERTLKYFLGIAGGKWVVSYFWVTQSIKERKMLNEHDFEVRGDVVNGRNHQGPKRARESQDRKIFRGLEICCYGPFTNMPTDQLEWMVQLCGASVVKELSSFTLGTGVHPIVVVQPDAWTEDNGFHAIGQMCEAPVVTREWVLDSVPLYQCQELDTYLIPQIPHSHY	≤ 1.5 fold
BRCA1 BRCT R1751Q (domain or fragment, UniProt P38398 1646-1863, looked up) VNKRMSMVVSGLTPEEFMLVYKFARKHHITLTNLITEETTHVVMKTDAEFVCERTLKYFLGIAGGKWVVSYFWVTQSIKERKMLNEHDFEVRGDVVNGRNHQGPKQARESQDRKIFRGLEICCYGPFTNMPTDQLEWMVQLCGASVVKELSSFTLGTGVHPIVVVQPDAWTEDNGFHAIGQMCEAPVVTREWVLDSVALYQCQELDTYLIPQIPHSHY	~1.4 fold
BRCA1 BRCT V1736A (domain or fragment, UniProt P38398 1646-1863, looked up) VNKRMSMVVSGLTPEEFMLVYKFARKHHITLTNLITEETTHVVMKTDAEFVCERTLKYFLGIAGGKWVVSYFWVTQSIKERKMLNEHDFEARGDVVNGRNHQGPKRARESQDRKIFRGLEICCYGPFTNMPTDQLEWMVQLCGASVVKELSSFTLGTGVHPIVVVQPDAWTEDNGFHAIGQMCEAPVVTREWVLDSVALYQCQELDTYLIPQIPHSHY	~5 fold
BRCA1 BRCT G1788V (domain or fragment, UniProt P38398 1646-1863, looked up) VNKRMSMVVSGLTPEEFMLVYKFARKHHITLTNLITEETTHVVMKTDAEFVCERTLKYFLGIAGGKWVVSYFWVTQSIKERKMLNEHDFEVRGDVVNGRNHQGPKRARESQDRKIFRGLEICCYGPFTNMPTDQLEWMVQLCVASVVKELSSFTLGTGVHPIVVVQPDAWTEDNGFHAIGQMCEAPVVTREWVLDSVALYQCQELDTYLIPQIPHSHY	~1.4 fold
BRCA1 BRCT V1665M (domain or fragment, UniProt P38398 1646-1863, looked up) VNKRMSMVVSGLTPEEFMLMYKFARKHHITLTNLITEETTHVVMKTDAEFVCERTLKYFLGIAGGKWVVSYFWVTQSIKERKMLNEHDFEVRGDVVNGRNHQGPKRARESQDRKIFRGLEICCYGPFTNMPTDQLEWMVQLCGASVVKELSSFTLGTGVHPIVVVQPDAWTEDNGFHAIGQMCEAPVVTREWVLDSVALYQCQELDTYLIPQIPHSHY	~1.4 fold
BRCA1 BRCT R1699L (domain or fragment, UniProt P38398 1646-1863, looked up) VNKRMSMVVSGLTPEEFMLVYKFARKHHITLTNLITEETTHVVMKTDAEFVCELTLKYFLGIAGGKWVVSYFWVTQSIKERKMLNEHDFEVRGDVVNGRNHQGPKRARESQDRKIFRGLEICCYGPFTNMPTDQLEWMVQLCGASVVKELSSFTLGTGVHPIVVVQPDAWTEDNGFHAIGQMCEAPVVTREWVLDSVALYQCQELDTYLIPQIPHSHY	~100 fold
BRCA1 BRCT M1775R (domain or fragment, UniProt P38398 1646-1863, looked up) VNKRMSMVVSGLTPEEFMLVYKFARKHHITLTNLITEETTHVVMKTDAEFVCERTLKYFLGIAGGKWVVSYFWVTQSIKERKMLNEHDFEVRGDVVNGRNHQGPKRARESQDRKIFRGLEICCYGPFTNRPTDQLEWMVQLCGASVVKELSSFTLGTGVHPIVVVQPDAWTEDNGFHAIGQMCEAPVVTREWVLDSVALYQCQELDTYLIPQIPHSHY	~1.4 fold
BRCA1 BRCT T1773S (domain or fragment, UniProt P38398 1646-1863, looked up) VNKRMSMVVSGLTPEEFMLVYKFARKHHITLTNLITEETTHVVMKTDAEFVCERTLKYFLGIAGGKWVVSYFWVTQSIKERKMLNEHDFEVRGDVVNGRNHQGPKRARESQDRKIFRGLEICCYGPFSNMPTDQLEWMVQLCGASVVKELSSFTLGTGVHPIVVVQPDAWTEDNGFHAIGQMCEAPVVTREWVLDSVALYQCQELDTYLIPQIPHSHY	~1.4 fold
